- subject.of.test: Tyrosine-protein kinase FRK (Homo sapiens)
- Sequence (P42685 whole entry): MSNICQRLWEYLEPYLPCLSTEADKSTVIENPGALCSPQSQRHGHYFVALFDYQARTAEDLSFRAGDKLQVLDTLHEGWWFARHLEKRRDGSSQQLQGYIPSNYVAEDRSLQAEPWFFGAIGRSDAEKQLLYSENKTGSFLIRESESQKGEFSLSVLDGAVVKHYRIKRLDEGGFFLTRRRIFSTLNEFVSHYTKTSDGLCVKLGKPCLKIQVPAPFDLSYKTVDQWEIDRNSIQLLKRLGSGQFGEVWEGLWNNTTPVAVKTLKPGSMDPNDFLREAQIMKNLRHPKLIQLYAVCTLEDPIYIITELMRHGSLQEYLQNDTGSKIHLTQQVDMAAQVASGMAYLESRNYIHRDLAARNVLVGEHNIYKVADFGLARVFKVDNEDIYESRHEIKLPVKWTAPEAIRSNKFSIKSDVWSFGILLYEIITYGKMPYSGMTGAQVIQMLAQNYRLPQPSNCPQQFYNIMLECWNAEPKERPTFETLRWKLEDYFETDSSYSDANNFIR
The source made the active and inactive calls.
Log the outcome using a class from Y for active, N for inactive

Before answering, review these 5 worked examples.
INSERT INTO results (compound, class) VALUES
  ('C#Cc1cccc(Nc2ncnc3cc(OC)c(OCCCCCCC(=O)NO)cc23)c1 [CUDC-101]', 'N'),
  ('Cc1cnc(NC(=O)Nc2cc(Br)c(C)cc2OC[C@@H]2CNCCO2)cn1 [RABUSERTIB]', 'N'),
  ('N#CC1(c2ccc(NC(=O)c3cccnc3NCc3ccncc3)cc2)CCCC1 [RIVOCERANIB]', 'N'),
  ('Cc1cccc(-c2nn3c(c2-c2ccnc4ccc(C(N)=O)cc24)CCC3)n1 [GALUNISERTIB]', 'N'),
  ('COCc1c(-c2ccc(NC(=O)Nc3cc(C(F)(F)F)ccc3F)c(F)c2)c2c(N)ncnn2c1CN1CCOCC1', 'Y');

Hi, do you know how NC(=O)Nc1cc(-c2cccc(F)c2)sc1C(=O)N[C@H]1CCCNC1 [AZD-7762] came out in this test?
Y

Hi, do you know how O=C(Nc1c[nH]nc1-c1nc2cc(CN3CCOCC3)ccc2[nH]1)NC1CC1 [AT-9283] came out in this test?
N

Hi, do you know how Cc1nc(Nc2n[nH]c3c2CN(C(=O)N[C@H](CN(C)C)c2ccccc2)C3(C)C)c2sccc2n1 [PF-03758309] came out in this test?
N

* * *

- subject.of.test: LIM domain kinase 1 (Homo sapiens)
- Sequence (P53667 whole entry, the tested form may be a part): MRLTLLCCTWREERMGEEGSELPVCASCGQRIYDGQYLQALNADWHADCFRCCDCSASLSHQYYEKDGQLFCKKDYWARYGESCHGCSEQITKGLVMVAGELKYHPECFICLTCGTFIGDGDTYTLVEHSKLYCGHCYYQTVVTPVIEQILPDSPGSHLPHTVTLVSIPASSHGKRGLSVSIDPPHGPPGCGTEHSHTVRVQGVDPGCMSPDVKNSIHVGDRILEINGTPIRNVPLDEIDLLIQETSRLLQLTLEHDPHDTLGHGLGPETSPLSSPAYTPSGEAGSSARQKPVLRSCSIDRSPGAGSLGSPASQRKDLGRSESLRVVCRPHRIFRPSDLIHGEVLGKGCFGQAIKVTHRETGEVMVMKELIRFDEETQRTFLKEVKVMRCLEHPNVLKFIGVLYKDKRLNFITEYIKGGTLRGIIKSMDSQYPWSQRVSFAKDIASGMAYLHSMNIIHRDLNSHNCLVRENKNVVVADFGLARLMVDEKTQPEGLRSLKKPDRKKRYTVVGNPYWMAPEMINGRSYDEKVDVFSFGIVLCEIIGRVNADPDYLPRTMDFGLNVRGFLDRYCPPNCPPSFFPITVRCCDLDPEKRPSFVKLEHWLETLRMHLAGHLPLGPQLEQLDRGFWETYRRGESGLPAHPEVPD
Active and inactive are the calls of the source.
Log the outcome using a class from active, inactive

Before answering, review these 6 worked examples.
INSERT INTO results (compound, class) VALUES
  ('CO[C@H]1C[C@@H]2CC[C@@H](C)[C@@](O)(O2)C(=O)C(=O)N2CCCC[C@H]2C(=O)O[C@H]([C@H](C)C[C@@H]2CC[C@@H](O)[C@H](OC)C2)CC(=O)[C@H](C)/C=C(\C)[C@@H](O)[C@@H](OC)C(=O)[C@H](C)C[C@H](C)/C=C/C=C/C=C/1C [SIROLIMUS]', 'inactive'),
  ('Cc1cc(Nc2ncc(Cl)c(Nc3ccccc3S(=O)(=O)C(C)C)n2)c(OC(C)C)cc1C1CCNCC1 [CERITINIB]', 'inactive'),
  ('C[C@@H](NC(=O)c1ncnc(N)c1Cl)c1ncc(C(=O)Nc2cc(C(F)(F)F)c(Cl)cn2)s1 [TOVORAFENIB]', 'active'),
  ('COc1cc2c(Nc3ccc(Cl)c(Cl)c3F)ncnc2cc1OC[C@@H]1C[C@@H]2CN(C)C[C@@H]2C1 [TESEVATINIB]', 'inactive'),
  ('Cc1cnc(NC(=O)Nc2cc(Br)c(C)cc2OC[C@@H]2CNCCO2)cn1 [RABUSERTIB]', 'inactive'),
  ('COCc1c(-c2ccc(NC(=O)Nc3cc(C(F)(F)F)ccc3F)c(F)c2)c2c(N)ncnn2c1CN1CCOCC1', 'inactive');

Hi, do you know how COc1cc2ncnc(Oc3cccc(NC(=O)Nc4cc(C(C)(C)C(F)(F)F)on4)c3)c2cc1OC [CEP-32496] came out in this test?
inactive

Hi, do you know how C=CC(=O)Nc1cc2c(Nc3ccc(F)c(Cl)c3)ncnc2cc1C#CC(C)(C)N1CCN(C)CC1 [AV-412 FREE BASE] came out in this test?
inactive

Hi, do you know how Cc1nc2cc(-c3nn(C(C)C)c4ncnc(N)c34)ccc2o1 came out in this test?
active

Hi, do you know how CN1C/C=C/CCOc2cccc(c2)-c2ccnc(n2)Nc2cccc(c2)C1 [ZOTIRACICLIB] came out in this test?
inactive

Hi, do you know how Cn1cc(-c2cnc3ccc4ccc(CS(=O)(=O)NCc5ccccn5)cc4c(=O)c3c2)cn1 [MK-8033] came out in this test?
inactive

Hi, do you know how Cc1cc(Nc2ncnc3ccc(NC4=NC(C)(C)CO4)cc23)ccc1Oc1ccn2ncnc2c1 [TUCATINIB] came out in this test?
inactive

Hi, do you know how Cc1cc(C(=O)NOCCO)c(Nc2ccc(I)cc2F)n(C)c1=O [AZD-8330] came out in this test?
inactive

Hi, do you know how NC1(c2ccc(-c3nc4ccn5c(=O)[nH]nc5c4cc3-c3ccccc3)cc2)CCC1 [MK-2206] came out in this test?
inactive

Hi, do you know how NC(=O)Nc1cc(-c2cccc(F)c2)sc1C(=O)N[C@H]1CCCNC1 [AZD-7762] came out in this test?
inactive

* * *

Activity calls are given as the source filed them.
So I've got Kd readings for UniProtKB P16591, take a look.
Sequence (P16591 whole entry): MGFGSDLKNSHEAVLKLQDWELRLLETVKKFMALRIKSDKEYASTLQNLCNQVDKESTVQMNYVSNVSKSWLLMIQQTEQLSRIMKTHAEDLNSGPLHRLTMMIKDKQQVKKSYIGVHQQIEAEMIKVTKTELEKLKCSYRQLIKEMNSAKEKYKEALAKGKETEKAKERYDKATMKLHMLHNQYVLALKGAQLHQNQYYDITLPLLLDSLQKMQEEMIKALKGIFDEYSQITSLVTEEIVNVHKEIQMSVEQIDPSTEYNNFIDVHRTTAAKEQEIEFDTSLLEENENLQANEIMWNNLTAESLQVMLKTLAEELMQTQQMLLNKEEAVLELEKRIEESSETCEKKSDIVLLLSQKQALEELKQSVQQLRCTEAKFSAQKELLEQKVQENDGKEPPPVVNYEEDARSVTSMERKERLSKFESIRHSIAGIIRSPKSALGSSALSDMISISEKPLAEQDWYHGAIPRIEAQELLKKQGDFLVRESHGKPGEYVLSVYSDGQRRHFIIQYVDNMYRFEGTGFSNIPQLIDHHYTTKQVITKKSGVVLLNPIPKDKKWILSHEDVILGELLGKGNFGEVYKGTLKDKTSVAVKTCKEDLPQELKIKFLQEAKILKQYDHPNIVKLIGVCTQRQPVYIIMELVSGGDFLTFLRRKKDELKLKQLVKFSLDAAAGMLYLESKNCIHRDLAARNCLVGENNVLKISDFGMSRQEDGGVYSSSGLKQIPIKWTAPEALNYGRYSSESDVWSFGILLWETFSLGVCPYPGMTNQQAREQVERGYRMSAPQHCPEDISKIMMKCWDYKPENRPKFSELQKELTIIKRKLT

INSERT INTO assay_data (compound, property_name, endpoint_value) VALUES
  ('COCc1c(-c2ccc(NC(=O)Nc3cc(C(F)(F)F)ccc3F)c(F)c2)c2c(N)ncnn2c1CN1CCOCC1', 'Kd', '> 30 µM (inactive)'),
  ('O=c1[nH]ccc2cc(OC3CCNCC3)ccc12 [SAR-407899 FREE BASE]', 'Kd', '> 30 µM (inactive)'),
  ('NC1(c2ccc(-c3nc4ccn5c(=O)[nH]nc5c4cc3-c3ccccc3)cc2)CCC1', 'Kd', '> 30 µM (inactive)'),
  ('Cc1nc(Nc2n[nH]c3c2CN(C(=O)N[C@H](CN(C)C)c2ccccc2)C3(C)C)c2sccc2n1', 'Kd', '0.802 µM (active)'),
  ('C[C@@H](Oc1cc(C(=O)Nc2ccc(C(=O)N3CCN(C)CC3)cc2)nnc1N)c1c(Cl)ccc(F)c1Cl', 'Kd', '> 30 µM (inactive)');

Which measured Kd value corresponds to CCNC(=O)C#Cc1ccc2c(c1)NC(=O)/C2=C(\Nc1ccc(CN(C)C)cc1)c1ccccc1 ?
0.385 µM (active)

Which measured Kd value corresponds to Cc1csc(-c2nnc(Nc3ccc(Oc4ncccc4-c4ccnc(N)n4)cc3)c3ccccc23)c1 ?
> 30 µM (inactive)

Which measured Kd value corresponds to Cc1cc(C(=O)NOCCO)c(Nc2ccc(I)cc2F)n(C)c1=O ?
> 30 µM (inactive)

Which measured Kd value corresponds to Cc1nc2cc(-c3nn(C(C)C)c4ncnc(N)c34)ccc2o1 ?
> 30 µM (inactive)

* * *

- subject.of.test: Ribosomal protein S6 kinase alpha-6 (Homo sapiens, UniProt Q9UK32)
- Sequence (Q9UK32 whole entry): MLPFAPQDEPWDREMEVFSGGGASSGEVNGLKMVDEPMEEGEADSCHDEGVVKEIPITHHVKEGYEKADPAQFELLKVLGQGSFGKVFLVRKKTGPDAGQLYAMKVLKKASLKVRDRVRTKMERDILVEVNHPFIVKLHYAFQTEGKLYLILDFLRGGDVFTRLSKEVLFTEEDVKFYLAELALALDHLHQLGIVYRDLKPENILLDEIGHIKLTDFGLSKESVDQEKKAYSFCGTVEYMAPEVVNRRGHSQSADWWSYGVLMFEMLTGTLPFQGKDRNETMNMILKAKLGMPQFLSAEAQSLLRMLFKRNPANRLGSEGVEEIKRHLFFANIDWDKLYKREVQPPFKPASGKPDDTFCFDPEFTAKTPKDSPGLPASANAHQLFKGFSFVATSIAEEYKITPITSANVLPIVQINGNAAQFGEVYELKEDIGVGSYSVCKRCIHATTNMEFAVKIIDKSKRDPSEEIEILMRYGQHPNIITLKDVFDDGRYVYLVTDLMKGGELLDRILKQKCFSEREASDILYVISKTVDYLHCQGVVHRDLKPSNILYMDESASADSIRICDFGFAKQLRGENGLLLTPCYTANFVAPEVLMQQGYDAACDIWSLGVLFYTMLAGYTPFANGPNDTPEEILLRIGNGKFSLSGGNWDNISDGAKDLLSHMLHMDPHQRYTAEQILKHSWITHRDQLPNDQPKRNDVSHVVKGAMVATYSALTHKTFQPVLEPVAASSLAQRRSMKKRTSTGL
Calls of active or inactive are those of the source.
Log the outcome using a class from 1 = active, -1 = inactive

Before answering, review these 2 worked examples.
INSERT INTO measurements (smiles_text, subject_of_test, class) VALUES
  ('COc1ccc(S(=O)(=O)N(C(C)=O)c2ccccc2/C=C/c2cc[n+]([O-])cc2)cc1', 'Ribosomal protein S6 kinase alpha-6 (Homo sapiens, UniProt Q9UK32)', -1),
  ('NC(=O)Nc1cc(-c2cccc(F)c2)sc1C(=O)N[C@H]1CCCNC1', 'Ribosomal protein S6 kinase alpha-6 (Homo sapiens, UniProt Q9UK32)', 1);

As a next step, examine the compound that follows.
Hi, do you know how O=C(Cc1ccc(-c2ccc(OCCN3CCOCC3)cc2)cn1)NCc1ccccc1 came out in this test?
-1

* * *

Calls of active or inactive are those of the source.
So I've got Kd readings for Cyclin-dependent kinase 2 (Homo sapiens, UniProt P24941), take a look.

Please state recorded Kd (tested on Cyclin-dependent kinase 2 (Homo sapiens, UniProt P24941)) of N#CC1(c2ccc(NC(=O)c3cccnc3NCc3ccncc3)cc2)CCCC1; note: in the data inactive means no Kd found up to 30 µM
> 30 µM (inactive)

Please state recorded Kd (tested on Cyclin-dependent kinase 2 (Homo sapiens, UniProt P24941)) of COc1ccc(S(=O)(=O)N(C(C)=O)c2ccccc2/C=C/c2cc[n+]([O-])cc2)cc1; note: in the data inactive means no Kd found up to 30 µM
> 30 µM (inactive)

Please state recorded Kd (tested on Cyclin-dependent kinase 2 (Homo sapiens, UniProt P24941)) of Cn1ncc(Cl)c1-c1cc(C(=O)N[C@H](CN)Cc2ccc(F)c(F)c2)oc1Cl; note: in the data inactive means no Kd found up to 30 µM
> 30 µM (inactive)

Please state recorded Kd (tested on Cyclin-dependent kinase 2 (Homo sapiens, UniProt P24941)) of Cc1cc(Nc2ncnc3ccc(NC4=NC(C)(C)CO4)cc23)ccc1Oc1ccn2ncnc2c1; note: in the data inactive means no Kd found up to 30 µM
> 30 µM (inactive)

Please state recorded Kd (tested on Cyclin-dependent kinase 2 (Homo sapiens, UniProt P24941)) of Cc1cc(C(=O)NOCCO)c(Nc2ccc(I)cc2F)n(C)c1=O; note: in the data inactive means no Kd found up to 30 µM
> 30 µM (inactive)

* * *

- subject.of.test: Interleukin-1 receptor-associated kinase 1 (Homo sapiens, UniProt P51617)
- Sequence (P51617 whole entry): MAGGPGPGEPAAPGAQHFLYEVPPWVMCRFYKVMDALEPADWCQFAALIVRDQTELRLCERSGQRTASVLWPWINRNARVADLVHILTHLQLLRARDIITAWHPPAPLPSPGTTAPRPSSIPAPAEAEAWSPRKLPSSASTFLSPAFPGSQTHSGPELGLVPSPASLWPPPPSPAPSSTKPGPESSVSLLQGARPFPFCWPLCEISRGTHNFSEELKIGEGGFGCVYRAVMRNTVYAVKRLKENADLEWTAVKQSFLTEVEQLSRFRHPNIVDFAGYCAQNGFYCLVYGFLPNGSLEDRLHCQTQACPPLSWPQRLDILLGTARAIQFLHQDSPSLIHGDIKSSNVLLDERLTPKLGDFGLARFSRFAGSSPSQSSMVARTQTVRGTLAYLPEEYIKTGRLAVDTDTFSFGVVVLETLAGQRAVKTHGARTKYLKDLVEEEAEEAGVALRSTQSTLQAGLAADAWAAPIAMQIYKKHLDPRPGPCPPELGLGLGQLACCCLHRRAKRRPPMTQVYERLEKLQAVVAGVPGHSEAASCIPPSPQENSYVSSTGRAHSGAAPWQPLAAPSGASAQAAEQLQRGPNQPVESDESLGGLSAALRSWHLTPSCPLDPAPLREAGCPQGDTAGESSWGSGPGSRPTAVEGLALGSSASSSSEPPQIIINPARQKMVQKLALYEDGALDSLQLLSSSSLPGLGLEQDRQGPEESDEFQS
Where a name gives a salt, the structure may show the parent alone. Active and inactive are the calls of the source.
Log the outcome using a class from 1 for active, -1 for inactive

Before answering, review these 4 worked examples.
INSERT INTO measurements (molecule, class) VALUES
  ('CCS(=O)(=O)N1CCN(c2ccc(Nc3ncc(C(N)=O)c(NC4CC4)n3)cc2)CC1 [Cerdulatinib Hydrochloride]', -1),
  ('CO[C@H]1C[C@@H]2CC[C@@H](C)[C@@](O)(O2)C(=O)C(=O)N2CCCC[C@H]2C(=O)O[C@H]([C@H](C)C[C@@H]2CC[C@@H](O)[C@H](OC)C2)CC(=O)[C@H](C)/C=C(\C)[C@@H](O)[C@@H](OC)C(=O)[C@H](C)C[C@H](C)/C=C/C=C/C=C/1C [SIROLIMUS]', -1),
  ('O=C(Nc1c[nH]nc1-c1nc2cc(CN3CCOCC3)ccc2[nH]1)NC1CC1 [AT-9283]', -1),
  ('C[C@@H](N)c1ccc(C(=O)Nc2ccnc3[nH]ccc23)cc1 [Y-39983]', -1);

Hi, do you know how Cn1cc(-c2cnc3ccc4ccc(CS(=O)(=O)NCc5ccccn5)cc4c(=O)c3c2)cn1 [MK-8033] came out in this test?
-1

Hi, do you know how NC1(c2ccc(-c3nc4ccn5c(=O)[nH]nc5c4cc3-c3ccccc3)cc2)CCC1 [MK-2206] came out in this test?
-1

Hi, do you know how CN1CCN(CCOc2cc(OC3CCOCC3)c3c(Nc4c(Cl)ccc5c4OCO5)ncnc3c2)CC1 [SARACATINIB] came out in this test?
-1

Hi, do you know how COc1c(OCCCN2CCOCC2)ccc2c1N=C(NC(=O)c1cnc(N)nc1)N1CCN=C21 [COPANLISIB] came out in this test?
-1

Hi, do you know how Cc1nc2cc(-n3ncc(C(=O)c4cc5ccccc5[nH]4)c3N)ccc2[nH]1 [FGFR INHIBITOR DEBIO 1347] came out in this test?
-1

These entries and their values trace back to ChEMBL document CHEMBL3991601.
